Catalogue of Log10TGI50 readings, one per entry.
# Tested on: OVCAR-5
# protocolSummary: NCI screening panel, OVCAR-5 (Ovarian Cancer)
# Format: cell-based, human
recordedEndpoint: Log10TGI50

{"smilesRepr": "CC(C)C[C@H](NC(=O)[C@H](Cc1ccccc1)NC(=O)[C@H](COC(F)F)NC(=O)[C@H](COC(F)F)NC(=O)CN1CCOCC1)C(=O)[C@@]1(C)CO1", "recordedEndpoint": "Log10TGI50", "quantitativeResult": "−6.46"}
{"smilesRepr": "CC(C)C[C@H](NC(=O)[C@H](COC(F)F)NC(=O)CN1CCOCC1)C(=O)N[C@@H](COC(F)F)C(=O)N[C@@H](Cc1ccccc1)C(=O)[C@@]1(C)CO1", "recordedEndpoint": "Log10TGI50", "quantitativeResult": "−6.07"}
{"smilesRepr": "CC(C)C[C@H](NC(=O)[C@H](COC(F)F)NC(=O)CN1CCOCC1)C(=O)N[C@@H](Cc1ccccc1)C(=O)N[C@@H](CC(C)C)C(=O)[C@@]1(C)CO1", "recordedEndpoint": "Log10TGI50", "quantitativeResult": "−6.70"}
{"smilesRepr": "CC(C)C[C@H](NC(=O)[C@H](COC(F)F)NC(=O)CN1CCOCC1)C(=O)N[C@@H](COC(F)F)C(=O)N[C@@H](CC(C)C)C(=O)[C@@]1(C)CO1", "recordedEndpoint": "Log10TGI50", "quantitativeResult": "−6.31"}
{"smilesRepr": "CC(C)C[C@H](NC(=O)[C@H](COC(F)F)NC(=O)[C@H](COC(F)F)NC(=O)[C@H](COC(F)F)NC(=O)CN1CCOCC1)C(=O)[C@@]1(C)CO1", "recordedEndpoint": "Log10TGI50", "quantitativeResult": "−5.71"}
{"smilesRepr": "CC(C)C[C@H](NC(=O)[C@H](COC(F)F)NC(=O)CN1CCOCC1)C(=O)N[C@@H](Cc1ccccc1)C(=O)N[C@@H](Cc1ccccc1)C(=O)[C@@]1(C)CO1", "recordedEndpoint": "Log10TGI50", "quantitativeResult": "−5.86"}
{"smilesRepr": "CC(C)C[C@H](NC(=O)[C@H](COC(F)F)NC(=O)[C@H](COC(F)F)NC(=O)[C@H](CCc1ccccc1)NC(=O)CN1CCOCC1)C(=O)[C@@]1(C)CO1", "recordedEndpoint": "Log10TGI50", "quantitativeResult": "−6.14"}

###

Catalogue of Log10LC50 readings, one per entry.
# System: SF-295
# protocolSummary: NCI screening panel, SF-295 (CNS Cancer)
# Type: cell-based, human

{"smilesRepr": "CC(C)C[C@H](NC(=O)[C@H](COC(F)F)NC(=O)CN1CCOCC1)C(=O)N[C@@H](COC(F)F)C(=O)N[C@@H](Cc1ccccc1)C(=O)[C@@]1(C)CO1", "Log10LC50": "−5.22"}
{"smilesRepr": "CC(C)C[C@H](NC(=O)[C@H](COC(F)F)NC(=O)CN1CCOCC1)C(=O)N[C@@H](Cc1ccccc1)C(=O)N[C@@H](Cc1ccccc1)C(=O)[C@@]1(C)CO1", "Log10LC50": "−6.24"}
{"smilesRepr": "CC(C)C[C@H](NC(=O)[C@H](COC(F)F)NC(=O)[C@H](COC(F)F)NC(=O)[C@H](COC(F)F)NC(=O)CN1CCOCC1)C(=O)[C@@]1(C)CO1", "Log10LC50": "−5.37"}
{"smilesRepr": "CC(C)C[C@H](NC(=O)[C@H](COC(F)F)NC(=O)CN1CCOCC1)C(=O)N[C@@H](COC(F)F)C(=O)N[C@@H](CC(C)C)C(=O)[C@@]1(C)CO1", "Log10LC50": "−6.09"}
{"smilesRepr": "CC(C)C[C@H](NC(=O)[C@H](Cc1ccccc1)NC(=O)[C@H](COC(F)F)NC(=O)[C@H](COC(F)F)NC(=O)CN1CCOCC1)C(=O)[C@@]1(C)CO1", "Log10LC50": "−5.17"}
{"smilesRepr": "CC(C)C[C@H](NC(=O)[C@H](COC(F)F)NC(=O)[C@H](COC(F)F)NC(=O)[C@H](CCc1ccccc1)NC(=O)CN1CCOCC1)C(=O)[C@@]1(C)CO1", "Log10LC50": "−6.15"}
{"smilesRepr": "CC(C)C[C@H](NC(=O)[C@H](COC(F)F)NC(=O)CN1CCOCC1)C(=O)N[C@@H](Cc1ccccc1)C(=O)N[C@@H](CC(C)C)C(=O)[C@@]1(C)CO1", "Log10LC50": "−6.42"}

Sourced from patent US20150218212A1
